Could you please report measured IC50 for the items listed next?
biological target: 3',5'-cyclic-AMP phosphodiesterase 4B (Homo sapiens, UniProt Q07343); assay: Inhibition of human GST-PDE4B
Sequence (Q07343 whole entry): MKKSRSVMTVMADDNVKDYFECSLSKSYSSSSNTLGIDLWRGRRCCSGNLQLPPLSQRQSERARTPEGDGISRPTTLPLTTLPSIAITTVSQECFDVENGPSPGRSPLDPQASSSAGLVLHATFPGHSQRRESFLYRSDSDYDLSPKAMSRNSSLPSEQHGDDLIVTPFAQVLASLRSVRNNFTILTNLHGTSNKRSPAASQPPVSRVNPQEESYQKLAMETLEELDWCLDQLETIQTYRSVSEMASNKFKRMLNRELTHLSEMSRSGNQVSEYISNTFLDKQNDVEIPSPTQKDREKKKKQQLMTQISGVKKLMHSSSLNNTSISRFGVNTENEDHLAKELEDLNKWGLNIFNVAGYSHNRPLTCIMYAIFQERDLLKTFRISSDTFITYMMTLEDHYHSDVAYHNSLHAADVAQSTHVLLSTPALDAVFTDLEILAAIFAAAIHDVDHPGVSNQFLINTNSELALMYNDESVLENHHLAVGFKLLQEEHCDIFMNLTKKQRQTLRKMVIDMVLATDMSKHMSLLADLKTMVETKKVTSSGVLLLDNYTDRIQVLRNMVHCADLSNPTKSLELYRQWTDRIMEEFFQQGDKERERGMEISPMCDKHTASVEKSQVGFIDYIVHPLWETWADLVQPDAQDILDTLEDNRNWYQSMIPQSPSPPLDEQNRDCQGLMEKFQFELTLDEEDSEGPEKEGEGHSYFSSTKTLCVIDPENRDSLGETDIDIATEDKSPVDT
Answer format: numeric, nM implied, no suffix.

Ask: Reported IC50, compound CC(c1cccc(-c2cc(C(C)(C)S(C)(=O)=O)cc3cccnc23)c1)N(C(=O)c1ccc(F)cc1)c1ccc(S(C)(=O)=O)cc1 (single isomer, unassigned; enantiomer B) : ____
Reply: 0.5

Ask: Look up IC50: CC(C)(C#N)c1cc(-c2cccc(CN(C(=O)Nc3ccccc3)c3ccc(S(C)(=O)=O)cc3)c2)c2ncccc2c1
Reply: 0.03

Ask: Item under review: CC(C)OC(=O)N(Cc1cccc(-c2cc(C(C)(C)C#N)cc3cccnc23)c1)c1ccc(S(C)(=O)=O)cc1 . Reported IC50?
Reply: 0.3

---

molecular target: 3',5'-cyclic-AMP phosphodiesterase 4B (Homo sapiens); experiment: Ability to block TNFalpha release through inhibition of PDE4 in LPS-stimulated human whole blood; type: functional, tissue-based
Would you kindly list IC50 for each of these molecules?
Unit µM implied. Number only.

Ask: // returns reported IC50 for input CC(C)(c1cc(-c2cccc(C(=O)Nc3ccncc3)c2)c2ncccc2c1)S(C)(=O)=O
Reply: 0.2

Ask: Entry CC(C)(c1cc(-c2cccc(C(=O)Nc3ccc(S(C)(=O)=O)cc3)c2)c2ncccc2c1)S(C)(=O)=O has what IC50?
Reply: 0.14

Ask: Can you look up the measured IC50 of CC(c1cccc(-c2cc(C(C)(C)S(C)(=O)=O)cc3cccnc23)c1)N(C(=O)c1ccc(F)cc1)c1ccc(S(C)(=O)=O)cc1 (single isomer, unassigned; enantiomer A) for me?
Reply: 1.4

Ask: Can you look up the measured IC50 of CC(C)NC(=O)N(Cc1cccc(-c2cc(C(C)(C)C#N)cc3cccnc23)c1)c1ccc(S(C)(=O)=O)cc1 for me?
Reply: 0.14

---

molecular target: 3',5'-cyclic-AMP phosphodiesterase 4B (Homo sapiens); assay: Ability to block TNFalpha release through inhibition of PDE4 in LPS-stimulated human whole blood; format: functional, tissue-based
Would you kindly list IC50 for each of these molecules?
Kindly format the answer as number then unit.

Ask: Give 3',5'-cyclic-AMP phosphodiesterase 4B (Homo sapiens) IC50 for CC(C)NC(=O)N(Cc1cccc(-c2cc(C(C)(C)S(C)(=O)=O)cc3cccnc23)c1)c1ccc(S(C)(=O)=O)cc1
Reply: 100 nM

Ask: Test system 3',5'-cyclic-AMP phosphodiesterase 4B (Homo sapiens); read-out IC50; what value for CC(c1cccc(-c2cc(C(C)(C)S(C)(=O)=O)cc3cccnc23)c1)N(C(=O)c1ccc(F)cc1)c1ccc(S(C)(=O)=O)cc1 (single isomer, unassigned; enantiomer B) ?
Reply: 250 nM

Ask: What measured IC50 is associated with CC(C)(c1cc(-c2cccc(NC(=O)c3ccc(S(C)(=O)=O)cc3)c2)c2ncccc2c1)S(C)(=O)=O on 3',5'-cyclic-AMP phosphodiesterase 4B (Homo sapiens)?
Reply: 1000 nM

---

Recorded endpoint: pIC50
API: returns pIC50 as number; meaning -log10 of concentration in mol/L.

Ask: Could you share what pIC50 was measured for CC(c1cccc(-c2cc(C(C)(C)S(C)(=O)=O)cc3cccnc23)c1)N(C(=O)C1CC1)c1ccc(S(C)(=O)=O)cc1 (configuration not stated) , tested on 3',5'-cyclic-AMP phosphodiesterase 4C (Homo sapiens)?
Reply: 7.77

Ask: Hello, I am looking for reported pIC50 with 3',5'-cyclic-AMP phosphodiesterase 4C (Homo sapiens) for CC(C)(c1cc(-c2cccc(C(=O)Nc3c(Cl)cncc3Cl)c2)c2ncccc2c1)S(C)(=O)=O . Could you help?
Reply: 8.26

Ask: Value wanted: pIC50 (3',5'-cyclic-AMP phosphodiesterase 4C (Homo sapiens)) of entry CC(C)(c1cc(-c2cccc(C(N)=O)c2)c2ncccc2c1)S(C)(=O)=O
Reply: 6.31

Ask: Lab note: need pIC50 for CC(C)(c1cc(-c2cccc(C(=O)Nc3ccc(S(C)(=O)=O)cc3)c2)c2ncccc2c1)S(C)(=O)=O on 3',5'-cyclic-AMP phosphodiesterase 4C (Homo sapiens), anyone have it?
Reply: 7.59

Ask: Observed pIC50 on 3',5'-cyclic-AMP phosphodiesterase 4C (Homo sapiens) for CC(C)(C#N)c1cc(-c2cccc(CN(Cc3ccc(F)cc3)c3ccc(S(C)(=O)=O)cc3)c2)c2ncccc2c1 , please.
Sequence (Q08493 whole entry): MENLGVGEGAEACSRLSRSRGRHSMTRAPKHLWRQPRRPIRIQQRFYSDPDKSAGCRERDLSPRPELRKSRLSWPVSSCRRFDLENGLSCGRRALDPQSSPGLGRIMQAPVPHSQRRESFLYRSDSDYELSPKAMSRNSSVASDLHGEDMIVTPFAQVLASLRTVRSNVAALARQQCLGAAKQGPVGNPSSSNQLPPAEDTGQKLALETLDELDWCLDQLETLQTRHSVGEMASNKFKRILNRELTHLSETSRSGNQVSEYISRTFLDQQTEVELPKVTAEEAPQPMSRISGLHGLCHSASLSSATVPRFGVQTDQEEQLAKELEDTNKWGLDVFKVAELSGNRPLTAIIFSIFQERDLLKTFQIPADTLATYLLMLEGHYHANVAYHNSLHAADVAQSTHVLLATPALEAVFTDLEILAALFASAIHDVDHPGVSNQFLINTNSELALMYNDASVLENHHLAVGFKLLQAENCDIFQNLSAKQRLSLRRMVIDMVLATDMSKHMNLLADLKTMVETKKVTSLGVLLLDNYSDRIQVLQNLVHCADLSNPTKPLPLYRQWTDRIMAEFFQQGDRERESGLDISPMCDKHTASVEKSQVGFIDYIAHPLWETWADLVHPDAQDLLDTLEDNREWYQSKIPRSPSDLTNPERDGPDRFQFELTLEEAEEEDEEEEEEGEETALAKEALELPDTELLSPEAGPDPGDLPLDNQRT
Reply: 8.02

Ask: Give 3',5'-cyclic-AMP phosphodiesterase 4C (Homo sapiens) pIC50 for CC(C)OC(=O)N(Cc1cccc(-c2cc(C(C)(C)C#N)cc3cccnc23)c1)c1ccc(S(C)(=O)=O)cc1
Reply: 8.38

Ask: # returns recorded pIC50 (system: 3',5'-cyclic-AMP phosphodiesterase 4C (Homo sapiens)) for Cc1cc(C(=O)N(Cc2cccc(-c3cc(C(C)(C)C#N)cc4cccnc34)c2)c2ccc(S(C)(=O)=O)cc2)no1
Reply: 9.05
